tested-system: Cholinesterase (Homo sapiens)
Sequence (P06276 whole entry): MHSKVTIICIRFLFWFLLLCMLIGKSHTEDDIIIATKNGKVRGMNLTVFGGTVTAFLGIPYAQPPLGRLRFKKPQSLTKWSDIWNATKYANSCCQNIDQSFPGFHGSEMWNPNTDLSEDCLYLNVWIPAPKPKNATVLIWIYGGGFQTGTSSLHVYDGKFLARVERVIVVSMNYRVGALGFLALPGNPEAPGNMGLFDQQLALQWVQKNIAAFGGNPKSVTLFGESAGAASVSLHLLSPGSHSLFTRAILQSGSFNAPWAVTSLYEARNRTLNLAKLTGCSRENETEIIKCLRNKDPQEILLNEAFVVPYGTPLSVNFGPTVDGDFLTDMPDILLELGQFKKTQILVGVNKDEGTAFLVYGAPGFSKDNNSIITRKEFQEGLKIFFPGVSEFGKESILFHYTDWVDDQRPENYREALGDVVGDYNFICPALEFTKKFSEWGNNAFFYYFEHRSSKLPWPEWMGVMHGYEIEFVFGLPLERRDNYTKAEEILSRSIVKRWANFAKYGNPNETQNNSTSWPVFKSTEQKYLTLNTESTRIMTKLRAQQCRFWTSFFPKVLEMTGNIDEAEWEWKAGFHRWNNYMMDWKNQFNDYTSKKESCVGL
protocol-notes: Inhibition of human plasma BuChE using S-butyrylthiocholine iodide as substrate preincubated for 60 mins followed by substrate addition measured after 5 mins by Ellman's method
For each entry below, report its pIC50 value.
Give bare numbers, as −log10 of the molar value.

Solved entries:
Using the record for CN(C)C(=O)Oc1cc(OC(=O)N(C)C)cc(C(O)CNC(C)(C)C)c1 (stereo not drawn) , state its measured pIC50.
8.37

Using the record for CCC(C)(C)NCC(O)c1cc(OC(=O)N(C)C)cc(OC(=O)N(C)C)c1.Cl (stereo not drawn) , state its measured pIC50.
8.14

For the next question, use this compound.
Using the record for CCN(C)C(=O)Oc1cc(OC(=O)N(C)CC)cc(C(O)CNC(C)(C)CC)c1.Cl (stereo not drawn) , state its measured pIC50.
8.15

###

pIC50: −log10 of the molar value.
Recorded pIC50 values (Acetylcholinesterase (Electrophorus electricus, UniProt O42275)) are given below.

Using the record for CN(C)C(=O)Oc1cc(OC(=O)N(C)C)cc(C(O)CNC(C)(C)c2ccccc2)c1 (stereo not drawn) , state its measured pIC50.
< 4.00

Using the record for CCN(C)C(=O)Oc1cc(OC(=O)N(C)CC)cc(C(O)CN2CCCCC2)c1 (stereo not drawn) , state its measured pIC50.
< 4.00

Using the record for CN(C)C(=O)Oc1cc(OC(=O)N(C)C)cc(C(O)CN2CCCCC2)c1 (stereo not drawn) , state its measured pIC50.
< 4.00

Using the record for CCN(C)C(=O)Oc1cc(OC(=O)N(C)CC)cc(C(O)CNC(C)(C)C)c1 (stereo not drawn) , state its measured pIC50.
< 4.00

Using the record for CCN(C)C(=O)Oc1cc(OC(=O)N(C)CC)cc(C(O)CNC(C)(C)CC)c1.Cl (stereo not drawn) , state its measured pIC50.
< 4.00

Working through the 3 compounds below one at a time, give pIC50 for each.
1. CN(C)C(=O)Oc1cc(OC(=O)N(C)C)cc(C(O)CN2CCCC2)c1 (stereo not drawn)
2. CN(C)C(=O)Oc1cc(OC(=O)N(C)C)cc(C(O)CNC2CCCC2)c1 (stereo not drawn)
3. CN(C)C(=O)Oc1cc(OC(=O)N(C)C)cc(C(O)CNC2CCCCC2)c1 (stereo not drawn)

[4.38, 4.18, "< 4.00"]

###

tested-system: UniProt:P22303
Sequence (P22303 whole entry): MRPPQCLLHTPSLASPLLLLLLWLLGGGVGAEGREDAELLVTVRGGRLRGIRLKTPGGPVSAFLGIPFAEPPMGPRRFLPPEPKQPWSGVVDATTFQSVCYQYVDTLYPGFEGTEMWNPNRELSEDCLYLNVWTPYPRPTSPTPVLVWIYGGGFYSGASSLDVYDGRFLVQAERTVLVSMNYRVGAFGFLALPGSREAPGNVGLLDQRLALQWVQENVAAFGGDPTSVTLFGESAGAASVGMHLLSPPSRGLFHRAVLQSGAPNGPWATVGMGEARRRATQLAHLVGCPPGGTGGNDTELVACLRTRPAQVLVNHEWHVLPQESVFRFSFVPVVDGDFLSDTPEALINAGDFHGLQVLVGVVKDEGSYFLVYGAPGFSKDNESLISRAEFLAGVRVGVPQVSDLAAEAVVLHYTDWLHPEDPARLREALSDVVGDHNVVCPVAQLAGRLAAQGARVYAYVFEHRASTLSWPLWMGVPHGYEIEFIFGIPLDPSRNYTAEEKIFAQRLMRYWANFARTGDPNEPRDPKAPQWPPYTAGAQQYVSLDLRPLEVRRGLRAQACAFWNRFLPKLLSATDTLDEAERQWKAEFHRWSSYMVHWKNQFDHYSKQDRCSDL
protocol-notes: Inhibition of human blood AChE using acetylthiocholine as substrate
experimental-readout: pIC50
One number for each entry, as −log10 of the molar value.

Fetch value of pIC50 on UniProt:P22303 for CN(C)C(=O)Oc1cc(OC(=O)N(C)C)cc(C(O)CNC(C)(C)C)c1 (stereo unspecified) [BAMBUTEROL] .
4.52

###

For each entry below, report its IC50 value.
tested-system: Cholinesterase (Equus caballus)
Sequence (P81908 whole entry): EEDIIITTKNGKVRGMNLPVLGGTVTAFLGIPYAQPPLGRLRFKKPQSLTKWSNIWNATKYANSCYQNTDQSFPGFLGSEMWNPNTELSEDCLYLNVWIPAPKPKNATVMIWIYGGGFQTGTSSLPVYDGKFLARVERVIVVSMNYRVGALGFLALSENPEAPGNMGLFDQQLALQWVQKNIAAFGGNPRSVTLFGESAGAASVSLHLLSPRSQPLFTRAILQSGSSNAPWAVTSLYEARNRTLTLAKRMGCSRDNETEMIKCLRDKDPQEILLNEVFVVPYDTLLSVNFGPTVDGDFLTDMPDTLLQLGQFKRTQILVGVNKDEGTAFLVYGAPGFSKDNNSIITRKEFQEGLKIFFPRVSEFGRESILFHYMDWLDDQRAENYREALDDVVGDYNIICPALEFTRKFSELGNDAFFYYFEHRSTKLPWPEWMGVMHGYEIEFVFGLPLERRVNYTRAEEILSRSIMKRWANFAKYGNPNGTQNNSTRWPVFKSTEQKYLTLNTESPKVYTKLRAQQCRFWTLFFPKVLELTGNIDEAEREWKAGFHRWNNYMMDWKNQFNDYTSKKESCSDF
protocol-notes: Inhibition of equine serum BuChE using S-butyrylthiocholine iodide as substrate preincubated for 60 mins followed by substrate addition measured after 5 mins by Ellman's method
Answers are plain numbers, in nM.

Solved entries:
Fetch value of IC50 on Cholinesterase (Equus caballus) for CN(C)C(=O)Oc1cc(OC(=O)N(C)C)cc(C(O)CNC(C)(C)C)c1 (stereo not given) [BAMBUTEROL] .
119

Fetch value of IC50 on Cholinesterase (Equus caballus) for CN(C)C(=O)Oc1cc(OC(=O)N(C)C)cc(C(O)CNc2ccccc2)c1 (stereo not given) .
2400

Fetch value of IC50 on Cholinesterase (Equus caballus) for CN(C)C(=O)Oc1cc(OC(=O)N(C)C)cc(C(O)CNc2ccc(I)cc2)c1 (stereo not given) .
4700

Fetch value of IC50 on Cholinesterase (Equus caballus) for CN(C)C(=O)Oc1cc(OC(=O)N(C)C)cc(C(O)CN2CCCCC2)c1 (stereo not given) .
100

Fetch value of IC50 on Cholinesterase (Equus caballus) for CN(C)C(=O)Oc1cc(OC(=O)N(C)C)cc(C(O)CN2CCCC2)c1 (stereo not given) .
253

Fetch value of IC50 on Cholinesterase (Equus caballus) for C#Cc1cccc(NCC(O)c2cc(OC(=O)N(C)C)cc(OC(=O)N(C)C)c2)c1 (stereo not given) .
686

Fetch value of IC50 on Cholinesterase (Equus caballus) for CN(C)C(=O)Oc1cc(OC(=O)N(C)C)cc(C(O)CNC2CCCC2)c1 (stereo not given) .
130

Fetch value of IC50 on Cholinesterase (Equus caballus) for CCN(C)C(=O)Oc1cc(OC(=O)N(C)CC)cc(C(O)CNC(C)(C)CC)c1.Cl (stereo not given) .
116

Working through the 2 compounds below one at a time, give IC50 for each.
1. CCN(C)C(=O)Oc1cc(OC(=O)N(C)CC)cc(C(O)CN2CCCCC2)c1 (stereo not given)
2. CCC(C)(C)NCC(O)c1cc(OC(=O)N(C)C)cc(OC(=O)N(C)C)c1.Cl (stereo not given)

[108, 126]

###

tested-system: Cholinesterase (Equus caballus)
protocol-notes: Inhibition of equine serum BuChE using S-butyrylthiocholine iodide as substrate preincubated for 60 mins followed by substrate addition measured after 5 mins by Ellman's method
For each entry below, report its pIC50 value.
Numbers only, as −log10 of the molar value.

Using the record for CN(C)C(=O)Oc1cc(OC(=O)N(C)C)cc(C(O)CNC(C)(C)c2ccccc2)c1 (stereo not drawn) , state its measured pIC50.
6.32

Working through the 2 compounds below one at a time, give pIC50 for each.
1. CCN(C)C(=O)Oc1cc(OC(=O)N(C)CC)cc(C(O)CNC(C)(C)C)c1 (stereo not drawn)
2. CN(C)C(=O)Oc1cc(OC(=O)N(C)C)cc(C(O)CNC2CCCCC2)c1 (stereo not drawn)

1: 6.95; 2: 6.65
